experimental_details: Compound toxicity, ATPLite total ATP levels
Type: cell-based
test_settings: human, HepG2 cells; concentration reducing total ATP levels by 50% relative to no drug controls; ATPLite three days after compound addition
Would you kindly list CC50 at 3 days for each of these compounds?

IN: Look up CC50 at 3 days for this compound: O=S(=O)(N[C@H]1CC2=C(c3ccn(C(F)F)n3)[C@H](c3ccc(F)cc3Cl)N=C(c3nccs3)N2C1)N1CCC(CO)CC1
OUT: > 25 µM

IN: May I ask what CC50 at 3 days has been recorded for O=S(=O)(N[C@H]1CC2=C(c3ccn(C(F)F)n3)[C@H](c3ccc(F)cc3Cl)N=C(c3nccs3)N2C1)N[C@H]1C[C@@H](O)C1 ?
OUT: > 25 µM

IN: Record request: CC50 at 3 days value, item O=S(=O)(NC(c1ccccn1)c1ccccn1)N[C@H]1CC2=C(c3ccn(C(F)F)n3)[C@H](c3ccc(F)cc3Cl)N=C(c3nccs3)N2C1
OUT: > 25 µM

###

experimental_details: Compound toxicity, ATPLite total ATP levels
Format: cell-based
test_settings: human, HepG2 cells; concentration reducing total ATP levels by 50% relative to no drug controls; ATPLite three days after compound addition
outcome_measure: CC50 at 3 days

IN: For the molecule shown here, O=S(=O)(N[C@H]1CC2=C(c3ccn(C(F)F)n3)[C@H](c3ccc(F)cc3Cl)N=C(c3nccs3)N2C1)c1cnn(S(=O)(=O)c2cn[nH]c2)c1 [Example 21] , give the reported CC50 at 3 days.
OUT: 10 to 25 µM

IN: Which CC50 at 3 days value belongs to O=S(=O)(N[C@H]1CC2=C(c3ccn(C(F)F)n3)[C@H](c3ccc(F)cc3Cl)N=C(c3nccs3)N2C1)N1CCCCC12CCC2 [Example 285] ?
OUT: > 25 µM

IN: # query: CC50 at 3 days of entry CC1(O)CCN(S(=O)(=O)N[C@H]2CC3=C(c4ccn(C(F)F)n4)[C@H](c4ccc(F)cc4Cl)N=C(c4nccs4)N3C2)C1 (stereo partly drawn) [Example 282]
OUT: > 25 µM

###

experimental_details: Compound toxicity, ATPLite total ATP levels
Format: cell-based
test_settings: human, HepG2 cells; concentration reducing total ATP levels by 50% relative to no drug controls; ATPLite three days after compound addition
Method: Compound toxicity is evaluated by seeding cells at 15,000 cells/well and treating with compound as described above.
outcome_measure: CC50 at 3 days

IN: Which CC50 at 3 days reading was recorded for the compound O=S(=O)(N[C@H]1CC2=C(c3ccn(C(F)F)n3)[C@H](c3ccc(F)cc3Cl)N=C(c3nccs3)N2C1)N1C[C@H](F)[C@@H](F)C1 [Example 275] ?
OUT: 10 to 25 µM

IN: Name the recorded CC50 at 3 days for N#CCCCS(=O)(=O)N[C@H]1CC2=C(c3ccn(C(F)F)n3)[C@H](c3ccc(F)cc3Cl)N=C(c3nccs3)N2C1 [Example 135] .
OUT: > 25 µM

IN: What value of measured CC50 at 3 days is listed for O=S(=O)(N[C@H]1CC2=C(c3ccn(C(F)F)n3)[C@H](c3ccc(F)cc3Cl)N=C(c3nccs3)N2C1)N1CCC(O)(C2CC2)CC1 [Example 270] ?
OUT: < 10 µM

IN: Can you look up the measured CC50 at 3 days of O=S(=O)(N[C@H]1CC2=C(c3ccn(C(F)F)n3)[C@H](c3ccc(F)cc3Cl)N=C(c3nccs3)N2C1)N1CCC(O)(C2CCCC2)CC1 [Example 267] for me?
OUT: > 25 µM

IN: Need CC50 at 3 days of O=C1CCCN1C1CCN(S(=O)(=O)N[C@H]2CC3=C(c4ccn(C(F)F)n4)[C@H](c4ccc(F)cc4Cl)N=C(c4nccs4)N3C2)CC1 [Example 293] , thanks.
OUT: > 25 µM

IN: GET /values?readout=CC50 at 3 days&item= O=S(=O)(N[C@H]1CC2=C(c3ccn(C(F)F)n3)[C@H](c3ccc(F)cc3Cl)N=C(c3nccs3)N2C1)c1cccc(C(O)c2ccccn2)c1 (stereo partly shown) [Example 339]
OUT: > 25 µM

IN: Entry under review: O=S(=O)(N[C@H]1CC2=C(c3ccn(C(F)F)n3)[C@H](c3ccc(F)cc3Cl)N=C(c3nccs3)N2C1)N[C@H]1CC[C@@H](O)CC1 [Example 154] . Reported CC50 at 3 days?
OUT: > 25 µM

IN: Field request: CC50 at 3 days | item: O=C1NCCN1C1CCN(S(=O)(=O)N[C@H]2CC3=C(c4ccn(C(F)F)n4)[C@H](c4ccc(F)cc4Cl)N=C(c4nccs4)N3C2)CC1 [Example 294]
OUT: > 25 µM

IN: Please give the measured CC50 at 3 days for this compound: O=S(=O)(NCCO)N[C@H]1CC2=C(c3ccn(C(F)F)n3)[C@H](c3ccc(F)cc3Cl)N=C(c3nccs3)N2C1 [Example 78]
OUT: > 25 µM

IN: Name the reported CC50 at 3 days value associated with the compound O=S(=O)(N[C@H]1CC2=C(c3ccn(C(F)F)n3)[C@H](c3ccc(F)cc3Cl)N=C(c3nccs3)N2C1)N[C@H]1C[C@H](O)C1 [Example 157]
OUT: > 25 µM
